# Tested on: UO-31 renal
# Method Summary: NCI tumour cell line growth inhibition, 48 h
Readout Kind: TGI

Here is how some compounds turned out for TGI.
query: Data request, read-out TGI, for O=C(NCCC1CN(C(=O)OCc2ccccc2)c2ccccc21)OCc1ccccc1 (configuration not stated)
result: > 100 µM

query: Data request, read-out TGI, for N/N=C(\c1nc2ccc([N+](=O)[O-])cc2[nH]c1=O)C(O)c1ccc(Cl)c(Cl)c1 (configuration not stated)
result: > 100 µM

query: Data request, read-out TGI, for `CCOC(=O)C(CCC(N)=O)(CCC(=O)OC)C(=O)OCC`
result: > 100 µM

query: Data request, read-out TGI, for `O=C(NCCCl)Nc1cccnc1`
result: 50.3 µM

query: Data request, read-out TGI, for CCCCCCCCCCCCCCCCCCNc1ccn(C2OC(CO)C(OP(=O)(O)OCC(O)COP(=O)(O)OCC3OC(n4cc(F)c(NCCCCCCCCCCCCCCCCCC)nc4=O)CC3O)C2O)c(=O)n1 (configuration not stated)
result: > 50 µM

query: Data request, read-out TGI, for `O=C(COc1cccc(/C=C2\CSc3ccc(Cl)cc3C2=O)c1)c1ccc(Cl)cc1`
result: 27.2 µM

query: Data request, read-out TGI, for COc1cc2cc(C(=O)N3CC(CCl)c4ccc([N+](=O)[O-])cc43)[nH]c2c(OC)c1OC (configuration not stated)
result: > 100 µM

query: Data request, read-out TGI, for `Cc1[nH]c2ccccc2c1CC/C(=N\Nc1ccccc1)c1ccccc1`
result: > 100 µM

query: Data request, read-out TGI, for CCCC1CC(=O)NC(=O)C1C(=O)OC(C)(C)C (configuration not stated)
result: > 100 µM

query: Data request, read-out TGI, for `Cc1cc2c(c(O)c1-c1c(C)cc(O)c3c1C(=O)C=CC3=O)C(=O)C=CC2=O`
result: 3.44 µM

Continuing:
query: Data request, read-out TGI, for `CCCCNS(=O)(=O)c1n[nH]c(=O)[nH]c1=O`
result: > 100 µM

query: Data request, read-out TGI, for `Cc1ccc(NC(=O)CC/C(CC(=O)C(C)(C)C)=N\NC(=O)C[n+]2ccccc2)cc1C`
result: > 100 µM

query: Data request, read-out TGI, for `O=C(NCCCNCCN1C(=O)c2cccc3cc([N+](=O)[O-])cc(c23)C1=O)c1cc(-c2ccccc2)nc2ccccc12`
result: 7.46 µM

query: Data request, read-out TGI, for `CSc1nc2nn(Cc3ccccc3)cc2c(=O)[nH]1`
result: > 100 µM

query: Data request, read-out TGI, for `Cc1c2c(nc3ccccc13)C(=O)c1cccnc1C2=O`
result: > 100 µM

query: Data request, read-out TGI, for CCN(CC)CC(C)C(=O)/C=C/c1ccc(C)cc1 (configuration not stated)
result: 26.4 µM

###

# Tested on: LOX IMVI melanoma
# Method Summary: NCI tumour cell line growth inhibition, 48 h
Readout Kind: TGI

Here is how some molecules turned out for TGI.
query: Data request, read-out TGI, for `CCCCCCCCCCCCCC1=C(O)C(=O)C(CC2=C(O)C(=O)C(CCCCCCCCCCCCC)=C(O)C2=O)=C(O)C1=O`
result: > 100 µM

query: Data request, read-out TGI, for `COc1cccc(/C=C/C(=O)c2sc(C(N)=S)nc2C)c1O`
result: 56.7 µM

query: Data request, read-out TGI, for Cc1cc(=O)oc2c(CNC(CO)C(=O)O)c(O)ccc12 (stereo not given)
result: > 100 µM

query: Data request, read-out TGI, for CCOc1cn(C2OC(CO)C(O)C2O)c(=O)[nH]c1=O (stereo not given)
result: > 100 µM

query: Data request, read-out TGI, for O=C1CC(c2ccccc2)Cc2nc3ccc(Br)cc3cc21 (stereo not given)
result: > 59.8 µM

query: Data request, read-out TGI, for `O=C(COc1cccc(/C=C2\CSc3ccc(Cl)cc3C2=O)c1)c1ccc(Cl)cc1`
result: 3.02 µM

Continuing:
query: Data request, read-out TGI, for C/C(=N\OCC(O)CNCCSCc1ccccc1)c1ccccc1Cl (stereo not given)
result: 36.5 µM

query: Data request, read-out TGI, for CCOC(=O)C1(C/C=C/CCl)CCCC1=O (stereo not given)
result: 30.4 µM

query: Data request, read-out TGI, for S=c1c2[nH]cnc2ncn1CCSC1=NC=NC2=NC=NC21 (stereo not given)
result: > 100 µM

Values from PubChem BioAssay (NCI)
